System: HEPG2
protocol text: Euclidean distance of Cell Painting phenotypic profile (signed KS, 77 features) to DMSO centroid (dimensionless distance); 5 or 10 uM (library dependent); higher = stronger phenotypic change vs DMSO (phenoactivity)
conditions used: 48 h
Structures can show the parent of a compound that is named as a salt.
measure name: Euclidean distance

# compound, obs value
data = [
    ("CCCCCOc1ccccc1/C(=C\\SC)n1ccnc1 [Neticonazole Hydrochloride]", 1.31),
    ("Nc1nc(OCc2ccccc2)c2nc[nH]c2n1 [O6-Benzylguanine]", 0.548),
    ("COc1ccccc1N1CCN(CCN2C(=O)CC3(CCCC3)CC2=O)CC1", 1.77),
    ("Cc1ccc(-c2c(-c3nn(C)c4ncnc(N5CC[C@H](N6CCCCC6)C5)c34)cnn2C)cc1", 0.843),
    ("CCOC(=O)N[C@@H]1CC[C@@H]2[C@@H](C1)C[C@H]1C(=O)O[C@H](C)[C@H]1[C@H]2/C=C/c1ccc(-c2cccc(F)c2)cn1 [Vorapaxar]", 1.49),
    ("C[C@@H]1O[C@@H](Oc2c(-c3ccc(O)c(O)c3)oc3cc(O)cc(O)c3c2=O)[C@H](O)[C@H](O)[C@H]1O [Quercitrin]", 0.738),
    ("Clc1ccc(C(Cn2ccnc2)OCc2ccsc2Cl)c(Cl)c1 (stereo not given) [Tioconazole]", 1.14),
    ("O=c1cc(N2CCOCC2)oc2c(-c3cccc4c3sc3ccccc34)cccc12", 2.73),
    ("CC(C)Oc1ccc(-c2nn([C@@H](C)c3oc4ccc(F)cc4c(=O)c3-c3cccc(F)c3)c3ncnc(N)c23)cc1F [umbralisib (TGR-1202)]", 1.81),
    ("CN(C)C(=O)c1ccc(S(=O)(=O)c2ccc(NC(=O)[C@@](C)(O)C(F)(F)F)c(Cl)c2)cc1", 2),
    ("O=C(O)c1ccc(C=C2SC(=S)N(c3cccc(C(F)(F)F)c3)C2=O)cc1", 0.977),
    ("CS(=O)(=O)c1cccc(C[C@H](NC(=O)c2c(Cl)cc3c(c2Cl)CCN(C(=O)c2ccc4ccoc4c2)C3)C(=O)O)c1 [Lifitegrast]", 0.431),
    ("CCN[C@H]1C[C@H](C)S(=O)(=O)c2sc(S(N)(=O)=O)cc21 [Dorzolamide HCl]", 1.06),
    ("CC(=O)N(O)CCCCCNC(=O)CCC(=O)N(O)CCCCCNC(=O)CCC(=O)N(O)CCCCCN [Deferoxamine mesylate]", 2.02),
    ("O=c1[nH]nc2c3c(cccc13)N=C(CN1Cc3ccccc3C1)N2", 2.35),
    ("COc1ccc(-c2ccc3c(N4CCOCC4)nc(N4C[C@@H](C)O[C@@H](C)C4)nc3n2)cc1CO", 2),
    ("CCc1c2c(nc3ccc(O)cc13)-c1cc3c(c(=O)n1C2)COC(=O)[C@]3(O)CC", 3.55),
    ("CC(=O)OCC[N+](C)(C)C [Acetylcholine iodide]", 0.594),
    ("COc1c2occc2c(OC)c2c(=O)cc(C)oc12 [Khellin]", 1.17),
    ("CC(C)(C)CC(C)(C)c1ccc(O)c(Cc2ccc(Cl)cc2Cl)c1 [Clofoctol]", 0.886),
    ("COc1ccc(C2CNC(=O)C2)cc1OC1CCCC1 (stereo not given) [Rolipram]", 1.13),
    ("C[C@](N)(Cc1ccc(O)c(O)c1)C(=O)O [Methyldopa]", 0.55),
    ("CN1CCC(COc2cnc(-c3cccc(Cn4nc(-c5cccc(C#N)c5)ccc4=O)c3)nc2)CC1", 1.76),
    ("CC1C(=O)OC2C(O)C34C5CC(C(C)(C)C)C36C(OC(=O)C6O)OC4(C(=O)O5)C12O (stereo not given) [Ginkgolide B]", 2.11),
    ("CC1OC2(CS1)CN1CCC2CC1 (stereo not given) [Cevimeline]", 0.72),
    ("CCC[C@H](NC(=O)[C@@H]1[C@H]2CCC[C@H]2CN1C(=O)[C@@H](NC(=O)[C@@H](NC(=O)c1cnccn1)C1CCCCC1)C(C)(C)C)C(=O)C(=O)NC1CC1 [Telaprevir (VX-950)]", 0.621),
    ("COC(=O)C1=C(C)NC(C)=C(C(=O)OC2CCCN(Cc3ccccc3)C2)C1c1cccc([N+](=O)[O-])c1 (stereo not given) [Benidipine HCl]", 0.713),
    ("NCCc1c[nH]cn1 [Histamine 2HCl]", 0.814),
    ("C=C1CC[C@H](O)C/C1=C/C=C1\\CCC[C@]2(C)[C@@H]([C@H](C)/C=C/[C@H](C)C(C)C)CC[C@@H]12 [Vitamin D2]", 2.02),
    ("CC(C)C(=O)c1c(C(C)C)nn2ccccc12 [Ibudilast]", 0.459),
    ("CC1=NN(c2ccc(C)c(C)c2)C(=O)/C1=N\\Nc1cccc(-c2cccc(C(=O)O)c2)c1O [Eltrombopag]", 3.89),
    ("Cn1nnc(-c2ccc(-c3ccc(N4C[C@H](CO)OC4=O)cc3F)cn2)n1 [Tedizolid]", 1),
    ("Cc1nc(C)c(C)nc1C [Ligustrazine hydrochloride]", 0.523),
    ("O=C(NCc1ccc(Oc2ccccc2)cc1)c1nc(-c2cc(Br)c(O)c(Br)c2)no1", 1.55),
    ("CCCNC(C)C(=O)Nc1c(C)csc1C(=O)OC (stereo not given) [Articaine HCl]", 0.87),
]
